What Neutralization IC50, ng/mL (FRNT, authentic SARS-CoV-2) was measured for each of the following?
biological target: SARS-CoV-2 spike (S) glycoprotein on virus (neutralization assays) (SARS-CoV-2, UniProt P0DTC2 14-1273); test: cell-based or functional assay
One number for each entry, in ng/mL.

For each of the binders below, state Neutralization IC50, ng/mL (FRNT, authentic SARS-CoV-2).
1. COV2-2096 (antibody, V domains shown) VH: QVQLVQSGAEVKKPGASVKVSCKASGYTFGSFDINWVRQATGQGLEWMGRMNSNSGNTAYAQKFQGRVTMTRDTSTNTAYMELSSLRSEDTAMYYCARMRSGWPTHGRPDDFWGRGTLVTVSS VL: QSVLTQAPSASGTPGQRVTISCSGSNSNIGSYTINWYQQLPGTAPKLLIYGNDQRTSGVPDRFSGSKFGTSASLAISGLQSEDENNYYCAVWDDSLNGLVFGGGTKLTVL
2. COV2-3025 (antibody, V domains shown) VH: EVQLVQSGPEVKKPGTSVKVSCKASGFTFMSSAVQWVRQARGQRLEWIGWIVIGSGNTNYAQKFQERVTITRDMSTSTAYMELSSLRSEDTAVYYCAAPYCSSISCNDGFDIWGQGTMVTVSS VL: EIVLTQSPGTLSLSPGERVTLSCRASQSVSSSYLAWYQQKPGQAPRLLIYGASSRATGIPDRFSGSGSGTDFTLTISRLEPEDFAVYYCQHYGSSRGWTFGQGTKVEIK
3. COV2-2165 (antibody, V domains shown) VH: EVQLVESGGGLVQPGGSLRLSCAASGLTVRSNYMTWVRQTPGKGLEWVSVIYSGGSTFYADSVKGRFTISRDNSKNTVYLQMNSLRAEDTAVYYCARDLVTYGLDVWGQGTTVTVSS VL: DIQLTQSPSFLSASVGDRVTITCRASQGISNYLAWYQQKPGTAPNLLIYAASTLQSGVPSRFSGSGSGTEFTLTISSLQPEDFATYYCQLLNSHPLTFGQGTRLEIK
4. COV2-2094 (antibody, V domains shown) VH: EVQLVESGGGVVRPGGSLRLSCAASGFIFDDYDMTWVRQAPGKGLEWVSGINWNGGSTGYADSVKGRFTISRDNAKNSLYLQMNSLRAEDTALYHCAVIMSPIPRYSGYDWAGDAFDIWGQGTMVTVSS VL: SSELTQDPAVSVALGQTVRITCQGDSLRSYYASWYQQKPGQVPILVIYDKNNRPSGIPDRFSGSSSGNTASLTITGAQAEDEADYYCNSRDSSGNAVVFGGGTKLTVL

59
37
332
154
